# Test system: Plasmodium falciparum
# assay.info: Calibr Malaria Delayed Death Assay SOP
# Format: functional, organism-based
# Design: scale not given: in the data most compounds retested in dose-response had high values
# condition.summary: concentration 4.99e-06 (unit not given; other assays of the set use mol/L)
The whole screen tested about 38,000 compounds, of which about 1,200 (3.2%) showed an effect of 50% or more. The median lay at about -58%. Only a selection was taken, and strong results are over-represented in it overall.
measurement.kind: Percent Effect

* CCOCc1ccc(CNC2=NCCCN2)cc1.I | 55.49%
* C=C(C)COc1cccc(CNCCc2c[nH]cn2)c1 | 26.04%
* CN(C)c1ccc(CNC2=NCCCN2)cc1.I | -57.09%
* c1ccc(-c2cc(CN3CCCCCC3c3ccco3)on2)nc1 (configuration not stated) | -88.84%
* CCn1nc2c(cc1=O)CN(Cc1nc(CCOC)no1)CC2 | -158.3%
* Cc1csc(C2CCCCN2C(=O)CN(C)C2CC2)n1 (configuration not stated) | -127%
* CCCn1nc2c(cc1=O)CN(Cc1nc(-c3ccoc3)no1)CC2 | -48.33%
* I.c1ccc(OCCNC2=NCCCN2)cc1 | 17.05%
* Cc1csc(C2CCCCN2C(=O)COCc2nc(C)no2)n1 (configuration not stated) | -74.6%
* CCCn1nc2c(cc1=O)CN(Cc1nc(CCOC)no1)CC2 | 60.93%
* CCN(CC)S(=O)(=O)c1ccc(C(=O)NC(C)(C)C)cc1 | -100.9%
* Cc1nn(C)c(Cl)c1C1CCCN1C(=O)c1cccn1C (configuration not stated) | -34.06%

These entries and their values trace back to ChEMBL document CHEMBL3988442.
